# T/C values compiled below
- Test system: P388 leukemia ip, CD2F1 mice, survival T/C
- procedure summary: NCI In Vivo Anticancer Drug Screen. Data for tumor model P388 Leukemia (intraperitoneal) in CD2F1 (CDF1) mice
- test parameters: endpoint: median survival time; dose: 25.0 mg/kg/injection; schedule: Q01DX009 (ip); vehicle: saline with Tween-80; higher = longer survival
Toxic doses and inconclusive results are not listed.
observed property: T/C

compound="CCOCN(COCC)C(C)Cc1ccccc1 (configuration not stated)" result_value="123 % of control"
compound="Nc1[nH]c(=O)ncc1C(=O)NC(CO)C(=O)O (configuration not stated)" result_value="95 % of control"
compound=O=C(c1cc2c(cc1[N+](=O)[O-])OCO2)N1CCc2ccccc21 result_value="94 % of control"
compound="CC(Br)C(=O)c1ccc2cc(Br)c3ccccc3c2c1 (configuration not stated)" result_value="106 % of control"
compound=[O-][n+]1c(CCl)nc2ccccc2c1-c1ccccc1F result_value="103 % of control"
compound=COC(=O)/C(=C\c1ccncc1)c1cccc2ccccc12 result_value="101 % of control"
compound="COC(=O)CC(=O)C(C)SC (configuration not stated)" result_value="100 % of control"
compound="CCCC(CCC)NCC(O)c1cc(-c2ccc(C(F)(F)F)cc2)nc(C(F)(F)F)c1 (configuration not stated)" result_value="107 % of control"
compound=CCN(CC)CCOc1ccc(/C(=C(\Cl)c2ccccc2)c2ccccc2)cc1 result_value="122 % of control"
compound=CC1(C)C=C(NC(=O)N2CC2)C(C)(C)N1O result_value="103 % of control"
compound="CC(CN(C)C)C(=O)c1ccccc1 (configuration not stated)" result_value="120 % of control"
compound=Cn1c(O)c(N=O)c(=O)n(C)c1=O result_value="105 % of control"

----------
- Tested on: P388 leukemia ip, CD2F1 mice, survival T/C
- procedure summary: NCI In Vivo Anticancer Drug Screen. Data for tumor model P388 Leukemia (intraperitoneal) in CD2F1 (CDF1) mice
- test parameters: endpoint: median survival time; dose: 100.0 mg/kg/injection; schedule: Q04DX003 (ip); vehicle: saline with Tween-80
Inconclusive results and toxic doses are left out. How the source made its calls: active means survival T/C of 150% or more; inactive means T/C below 125% in these data.
Outcome codes: active, inactive

compound=CCC(C(=O)O)C(=O)O.[NH-]CC[NH-].[Pt+2] qualitative_label=active
compound=c1nc(SC2CCCC2)c2[nH]cnc2n1 qualitative_label=inactive
compound="O=P(OCc1ccccc1)(N(CCCl)CCCl)N1CCN(P(=O)(OCc2ccccc2)N(CCCl)CCCl)CC1 (stereo unspecified)" qualitative_label=inactive
compound=Cn1c(Cl)c(C=O)c(=O)n(C)c1=O qualitative_label=inactive
compound=Cc1nc2[nH]c(=O)[nH]c(=O)c2[nH]1 qualitative_label=inactive
compound=Cc1n[nH]c2ccc([N+](=O)[O-])cc2c1=O qualitative_label=inactive
compound=CCCCCCCCC(C(=O)c1ccccc1)=C(C(F)(F)F)C(F)(F)F qualitative_label=inactive
compound=c1ccc(Sc2cccc3ccccc23)cc1 qualitative_label=inactive
compound=C[C@]12CC[C@H]3[C@@H](CCC4=CC(=O)CC[C@@]43C)[C@@H]1CC[C@@H]2OC(=O)Cc1ccc(N(CCCl)CCCl)cc1 qualitative_label=inactive
compound="O=C1NC(=O)C2(CC3CCCCC3CC2c2ccccc2)N1 (stereo unspecified)" qualitative_label=inactive
compound=Cc1ccc(S(=O)(=O)OCCN(CCOS(=O)(=O)c2ccc(C)cc2)c2ccc(N=O)cc2)cc1 qualitative_label=active

Ref: PubChem BioAssay AID330
